The measured values listed here are drawn from PubChem BioAssay AID248.

Test system: L1210 leukemia ip in BDF1 mice, survival T/C
Experiment: NCI In Vivo Anticancer Drug Screen. Data for tumor model L1210 Leukemia (intraperitoneal) in B6D2F1 (BDF1) mice
Conditions: endpoint: mean survival time; dose: 25.0 mg/kg/injection; schedule: Q04DX003 (ip); vehicle: saline; higher = longer survival
Inconclusive results and toxic doses are left out.

Molecule: COc1cc(C(O)CN)cc(OC)c1OC (configuration not stated)
T/C: 88 % of control
--
Molecule: CCC(C)(CC)OC(N)=O
T/C: 100 % of control
--
Molecule: Cc1cccc2cc3c(ccc4ccccc43)c[n+]12
T/C: 97 % of control
--
Molecule: CNCC/C=C1\c2ccccc2CCSc2ccccc21
T/C: 98 % of control
--
Molecule: O=C1NC(c2ccccc2)C(=O)N1CCN(CCCl)CCCl (configuration not stated)
T/C: 115 % of control
--
Molecule: O=C(O)C1C(C(=O)O)C2(Cl)C(Cl)=C(Cl)C1(Cl)C2(Cl)Cl.[Fe] (configuration not stated)
T/C: 94 % of control
--
Molecule: CCCCNC(C)(C)CS
T/C: 94 % of control
--
Molecule: CCCCN(CCCC)CCN(CCCC)CCN(CCCC)CCCC
T/C: 103 % of control
--
Molecule: CC(C#N)C(N)=O (configuration not stated)
T/C: 94 % of control
--
Molecule: CCN1CC(CCN2CCOCC2)C(c2ccccc2)(c2ccccc2)C1=O (configuration not stated)
T/C: 87 % of control
--
Molecule: C=CCc1cc(CN(C)CCO)c(O)c(OC)c1
T/C: 95 % of control
--
Molecule: CN1CCCN(C)C1c1ccccc1O
T/C: 106 % of control
